Kindly supply the reported pIC50 values for the records listed here.
pIC50: −log10 of the molar value.

Entry COc1cc(-c2ccc(Nc3nc(-c4ccc(C)cc4)cs3)c(OC)c2)ccc1Nc1nc(-c2ccc(C)cc2)cs1 , system Cholinesterase (Homo sapiens, UniProt P06276): what pIC50 was measured? < 3.87

Entry COc1cc(-c2ccc(NC(N)=S)c(OC)c2)ccc1NC(N)=S , system Cholinesterase (Homo sapiens, UniProt P06276): what pIC50 was measured? < 3.66

Entry COc1cc(-c2ccc(Nc3nc(-c4cc(Cl)ccc4Cl)cs3)c(OC)c2)ccc1Nc1nc(-c2cc(Cl)ccc2Cl)cs1 , system Cholinesterase (Homo sapiens, UniProt P06276): what pIC50 was measured? < 3.94

Entry COc1cc(-c2ccc(Nc3nc(-c4ccc(Cl)cc4)cs3)c(OC)c2)ccc1Nc1nc(-c2ccc(Cl)cc2)cs1 , system Cholinesterase (Homo sapiens, UniProt P06276): what pIC50 was measured? < 3.90

Entry COc1cc(-c2ccc(Nc3nc(-c4ccc([N+](=O)[O-])cc4)cs3)c(OC)c2)ccc1Nc1nc(-c2ccc([N+](=O)[O-])cc2)cs1 , system Cholinesterase (Homo sapiens, UniProt P06276): what pIC50 was measured? < 3.91
